# assay: Evaluation of pharmacokinetic profile: plasma and brain concentrations after oral dosing
# Assay type: in vivo, Wistar rats
# testConditions: male, Wistar; rat, 10 mg/kg po, brain, 2 h post-dosing; read-out: Cbr (ng/g) at 2 h
measurementType: concentration at 2 h (ng/g)
Give the number; ng/g is assumed, so skip it.

Ask | # return recorded concentration at 2 h for input NC(=O)Cc1[nH]c(=S)n2c1[C@@H]1C[C@]1(c1cc(Cl)ccc1F)C2
Reply | 21

Ask | # return recorded concentration at 2 h for input Cl.Fc1cc(F)c(F)c([C@H]2Cc3c(CCN4CCOCC4)[nH]c(=S)n3C2)c1F [Example 199, Hydrochloride]
Reply | 0

Ask | # return recorded concentration at 2 h for input Cn1c(CC(=O)N[C@@H]2CCOC2)c2n(c1=S)C[C@H](c1c(F)ccc(Br)c1F)C2
Reply | 46

Ask | # return recorded concentration at 2 h for input O=C(Cc1[nH]c(=S)n2c1[C@@H]1C[C@]1(c1cc(Cl)ccc1F)C2)N1CCOCC1
Reply | 0

Just for reference, patent US11434242B2 is where these values come from.
